# Target or system: KDM3B (Homo sapiens)
# Sequence (Q7LBC6 whole entry): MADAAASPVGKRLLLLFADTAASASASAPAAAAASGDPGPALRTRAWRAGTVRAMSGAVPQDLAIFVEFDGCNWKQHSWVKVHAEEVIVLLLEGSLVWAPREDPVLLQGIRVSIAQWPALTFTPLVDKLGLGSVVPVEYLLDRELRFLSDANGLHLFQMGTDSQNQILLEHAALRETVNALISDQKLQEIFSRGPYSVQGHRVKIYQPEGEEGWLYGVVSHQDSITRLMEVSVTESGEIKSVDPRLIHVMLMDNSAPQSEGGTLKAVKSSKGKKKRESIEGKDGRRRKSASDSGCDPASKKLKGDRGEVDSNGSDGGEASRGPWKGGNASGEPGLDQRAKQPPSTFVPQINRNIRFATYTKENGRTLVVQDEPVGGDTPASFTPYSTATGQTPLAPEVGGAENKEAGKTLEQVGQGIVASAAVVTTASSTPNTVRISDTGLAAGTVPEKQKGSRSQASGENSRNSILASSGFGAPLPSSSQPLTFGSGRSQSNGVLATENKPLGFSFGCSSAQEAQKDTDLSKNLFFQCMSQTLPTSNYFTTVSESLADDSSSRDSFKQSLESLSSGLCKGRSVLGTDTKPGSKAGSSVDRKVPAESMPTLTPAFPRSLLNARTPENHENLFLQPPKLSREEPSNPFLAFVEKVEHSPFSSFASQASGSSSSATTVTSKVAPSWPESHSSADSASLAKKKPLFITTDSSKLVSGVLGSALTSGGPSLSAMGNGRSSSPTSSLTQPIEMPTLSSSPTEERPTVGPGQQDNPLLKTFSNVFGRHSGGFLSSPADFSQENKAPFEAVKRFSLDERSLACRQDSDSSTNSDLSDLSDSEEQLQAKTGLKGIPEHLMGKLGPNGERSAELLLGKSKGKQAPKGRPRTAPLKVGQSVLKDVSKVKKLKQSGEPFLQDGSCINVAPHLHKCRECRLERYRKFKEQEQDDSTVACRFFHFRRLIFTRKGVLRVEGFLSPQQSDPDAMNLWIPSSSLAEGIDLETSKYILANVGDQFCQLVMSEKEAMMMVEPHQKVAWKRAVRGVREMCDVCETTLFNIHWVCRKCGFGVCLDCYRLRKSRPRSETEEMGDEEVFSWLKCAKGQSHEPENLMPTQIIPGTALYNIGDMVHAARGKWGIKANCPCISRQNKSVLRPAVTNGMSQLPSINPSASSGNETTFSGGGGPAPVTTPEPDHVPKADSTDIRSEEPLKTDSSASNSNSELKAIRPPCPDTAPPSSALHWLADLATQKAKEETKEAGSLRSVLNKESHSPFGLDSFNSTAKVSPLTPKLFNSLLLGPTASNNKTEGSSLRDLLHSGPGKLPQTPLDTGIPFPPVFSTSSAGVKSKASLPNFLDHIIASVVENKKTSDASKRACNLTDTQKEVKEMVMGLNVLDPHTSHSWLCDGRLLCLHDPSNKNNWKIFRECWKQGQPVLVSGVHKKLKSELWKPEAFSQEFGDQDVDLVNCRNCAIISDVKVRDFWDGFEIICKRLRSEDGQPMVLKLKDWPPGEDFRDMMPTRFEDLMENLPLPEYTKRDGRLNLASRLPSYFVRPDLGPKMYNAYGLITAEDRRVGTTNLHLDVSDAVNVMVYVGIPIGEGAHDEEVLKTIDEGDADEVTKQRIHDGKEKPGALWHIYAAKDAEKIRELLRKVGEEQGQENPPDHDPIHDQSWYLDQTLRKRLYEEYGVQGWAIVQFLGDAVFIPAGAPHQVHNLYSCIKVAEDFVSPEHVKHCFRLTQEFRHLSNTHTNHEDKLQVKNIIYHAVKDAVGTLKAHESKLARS
# Assay protocol: competitive inhibition of purified recombinant KDM3B
Measured attribute: IC50

Input line: What does the record list as IC50 for O=C(O)CCC(O)C(=O)O (stereo not shown) ?
Output line: ~2460 µM
